- Tested on: HEK-293T
- Run description: Multiplex assay against HEK293T
- Type: toxicity, cell-based
- Conditions used: human, 12 h, 1 µM, compound concentration 1 uM, replicate 2
Listed below: Population Fragmented Nuclei (%) values for each entry.
Report as a plain number; the unit % is understood.

A selection of reference data follows.
• CC(C)c1cc(Nc2nc(N3CCC[C@H](N)C3)ncc2C(N)=O)cc(C(C)C)n1 = 5
• Cc1ccc(S(=O)(=O)NC2c3ccccc3Oc3ccccc32)cc1 = 5
• Cc1c(P(=S)(c2ccccc2)c2ccccc2)n2ccccc2[n+]1C/C=C/c1ccccc1.[Br-] = 6
• CCCc1cc(C)[nH]c(=O)c1CNC(=O)c1cc(-c2ccc(N3CCN(C(C)C)CC3)nc2)cc2c1cnn2C(C)C = 4
• Cc1c(Nc2ccc(S(=O)(=O)N3CCN(C)CC3)cc2F)nc2ccc(-c3cnn(C4CC4)c3)cn2c1=O = 7

IN: Retrieve Population Fragmented Nuclei (%) measured for "C[C@@H](Oc1cc(-n2cnc3ccc(CN4CCN(C)CC4)cc32)sc1C(N)=O)c1ccccc1C(F)(F)F" and print it.
OUT: 10

IN: Retrieve Population Fragmented Nuclei (%) measured for "CC[C@@H]1C(=O)N(C)c2cnc(Nc3ccc(C(=O)N[C@H]4CC[C@H](N5CCN(CC6CC6)CC5)CC4)cc3OC)nc2N1C(C)C" and print it.
OUT: 3

IN: Retrieve Population Fragmented Nuclei (%) measured for "Cc1c(Nc2ccc(S(=O)(=O)N3CCN(C)CC3)cc2F)nc2ccc(Nc3cnn(C4CC4)c3)cn2c1=O" and print it.
OUT: 3

====

Listed below: Growth Rate values for each entry.
- System: HEK-293T
- Run description: Incucyte cell viability with HEK293T; note: filed as whole numbers so only -1 and 0 and 1 occur
- Format: toxicity, cell-based
- Conditions used: human, 18 h, 10 µM, compound concentration 10 uM, replicate number 2, timepoint 18 hours
Respond with the number and no other words.

A selection of reference data follows.
• Cc1c(C2=CCN(C(=O)N(C)C(C)C)CC2)nnn1-c1cccnc1F = 1
• Cc1cc2c(cc1C1(c3ccc(C(=O)O)cn3)CC1)C(C)(C)CCC2(C)C = 0
• CC(C)(Cc1ccccc1)NCC(O)c1ccc(O)c(NS(C)(=O)=O)c1.Cl (stereo not given) [ZINTEROL HYDROCHLORIDE] = 0
• CC(C)(O)c1cncc(-c2nc3ccc(F)cc3n2C2CC2)c1 [MSD-CYP11B2] = 1
• CCCCC#Cc1nc(NC)c2ncn([C@@H]3O[C@H](CO)[C@@H](O)[C@H]3O)c2n1 = 1

IN: Retrieve Growth Rate measured for "COc1ccc(Br)cc1S(=O)(=O)NC(=O)/C=C/c1ccccc1Cc1ccc2ccccc2c1" and print it.
OUT: 1

IN: Retrieve Growth Rate measured for CN(CCOc1ccc(CC2SC(=O)NC2=O)cc1)c1ccccn1 (stereo not given) [ROSIGLITAZONE] and print it.
OUT: 0

IN: Retrieve Growth Rate measured for Cn1cc(Cl)c2c(Oc3c(F)cc(Nc4cc(Cl)nc(N)n4)cc3F)ccnc21 [BAY-4900] and print it.
OUT: 0

IN: Retrieve Growth Rate measured for N#CCNC(=O)c1ccc(-c2ccnc(Nc3ccc(N4CCOCC4)cc3)n2)cc1 [MOMELOTINIB] and print it.
OUT: 1

IN: Retrieve Growth Rate measured for CC(C)(N)C(=O)N[C@H](COCc1ccccc1)C(=O)N1CCC2(CC1)CN(S(C)(=O)=O)c1ccccc12.CS(=O)(=O)O [IBUTAMOREN MESYLATE] and print it.
OUT: 1

IN: Retrieve Growth Rate measured for C[C@H]1C[C@H]2[C@@H]3CCC4=CC(=O)C=C[C@]4(C)[C@@]3(Cl)[C@@H](O)C[C@]2(C)[C@@]1(O)C(=O)CO [BECLOMETHASONE] and print it.
OUT: 0

IN: Retrieve Growth Rate measured for Cc1ccc2[nH]c(CNCCCc3ccncc3)cc(=O)c2c1 [UCSF924NC] and print it.
OUT: 1
